Where do the numbers come from? From ChEMBL document CHEMBL1201862.

- Tested on: OVCAR-4
- experimentSummary: NCI tumour cell line growth inhibition, 48 h
Calls of active or inactive are those of the source. No stated cut-off is given here; in the data, active = GI50 up to about 1.1 µM and inactive = higher.
Choose the fitting class; nothing outside true (active), false (inactive) is accepted.

Reference set, count: 5
CC1=C(C(=O)Nc2cc(=O)n(C)c(=O)n2C)C(c2ccc([N+](=O)[O-])cc2)C(C(=O)Nc2cc(=O)n(C)c(=O)n2C)=C(C)N1 ... false
Cc1ccc(S(=O)(=O)n2cc(C#N)c(C#N)c2)cc1 ... false
CCOC(=O)C(C(C)=O)C1CC=CC1 (stereo not given) ... false
COc1ccccc1-c1cc(=O)c2cc(C)c(C)c(C(=O)O)c2o1 ... false
O=c1[nH]nc(N/N=C\c2ccc(Cl)cc2)c2ccccc12 ... false

State the result this test recorded for CC(=O)c1cccc(NC(=O)C(=O)C(C(=O)NN)c2ccccc2)c1 (stereo not given) .
false

Look up the recorded call for COC(=O)c1c(C(=O)OC)c(C(c2ccccc2)c2ccccc2)n(-c2ccccc2)c1Cl in this test.
false

Please let me know the test result on file for CCOP(=O)(CCC(O)CNc1nc(N)nc(Cl)c1/N=N/c1ccc(Cl)cc1)OCC (stereo not given) .
false

State the result this test recorded for COc1ccc(N[S+]([O-])CCCc2ccccc2)cc1 (stereo not given) .
false

Assay result, entry O=C(OCc1ccccc1)n1cccc1 — outcome?
false

Query: recorded result category for O=C1CN(c2cccc(Cl)c2)C(=O)CN1CCN1CC(=O)N(c2cccc(Cl)c2)CC1=O in this test
false
